System: HCT-15 colon
experimental-protocol: NCI-60 one-dose screen, 48 h
test-parameters: 10 µM unless noted
The panel holds about 83,000 compounds, 20% with a hit somewhere; the sample as a whole holds those more often. Active and inactive are the calls of the source. How the source made its calls: active means growth percent below 10; inactive means the rest.
Possible outcomes: Yes (active), No (inactive)

> print(dat)
                                    molecule  measurement.target  assigned.class
 1  O=S(=O)(Nc1ccc2ccccc2c1)c1ccc(-c2cnc(C3CC3)o2)cc1        HCT-15 colon              No
 2  Cc1ccc(S(=O)(=O)OC[C@]23CCC(C)(C)C[C@H]2C2=CC[C@@H]4[C@@]5(C)CCCNC(C)(C)[C@@H]5CC[C@@]4(C)[C@]2(C)CC3)cc1        HCT-15 colon             Yes
 3  O=C1OCC2=C1C(c1ccccc1)c1cc3c(cc1N2CCO)OCCO3 (centres undefined)        HCT-15 colon             Yes
 4  COc1ccc(C2[C@@H](Cl)C(=O)N2c2cc(OC)c(OC)c(OC)c2)cc1Cl (some centres undefined)        HCT-15 colon              No
 5  CC(C)n1c2ccc(Br)cc2c2c3c(c4c5ccccc5ccc4c21)C(=O)NC3=O        HCT-15 colon              No
 6  Cc1nc2sc(C(=O)Nc3cccc(Cl)c3C)c(N)c2cc1C(=O)/C=C/c1ccccc1        HCT-15 colon             Yes
 7  CNC(=O)c1cc(Oc2ccc3c(c2)sc2nc(-c4cc(C(F)(F)F)cc(C(F)(F)F)c4)cn23)ccn1        HCT-15 colon              No
 8  O=C(NCc1ccc(Cn2c(=O)sn(-c3ccccc3)c2=O)cc1)OCc1ccc2cccc(O)c2n1        HCT-15 colon             Yes
 9     O=c1oc2c(cnc3ccccc32)cc1-c1cccc(Cl)c1        HCT-15 colon              No
10  O=C(Nc1ccc(Oc2cccc(Cl)c2)c(Cl)c1)c1cccnn1        HCT-15 colon              No
11  COc1ccc(C(O)c2cc3c(N)c(C(=O)Nc4cccc5ccccc45)sc3nc2C)cc1 (centres undefined)        HCT-15 colon             Yes
12  N#Cc1c(-c2ccc(Br)cc2)nc2c(N=Nc3ccc(S(N)(=O)=O)cc3)c(N)nn2c1N        HCT-15 colon              No
13  CCOC(=O)C1=C(CC(O)c2ccc(OC)cc2OC)NC(=O)NC1c1ccccc1 (centres undefined)        HCT-15 colon              No
14  O=S(=O)(N=C1C(Cl)=C(Cl)C(=NS(=O)(=O)c2ccccc2)C(Cl)=C1Cl)c1ccccc1        HCT-15 colon             Yes
15  CN1c2ccccc2S(=O)(=O)n2c(SCC(=O)Nc3nc4ccc(F)cc4s3)nnc21        HCT-15 colon              No
16  Nc1ncnc2c1N=C(c1ccc(F)cc1)CC(c1cccc(Nc3ccnc4cc(Cl)ccc34)c1)N2 (centres undefined)        HCT-15 colon              No
17  CCOC(=O)CC[C@H](NC(=O)c1ccc(N(C)Cc2cnc3nc(N)nc(N)c3n2)c2ccccc12)C(=O)OCC        HCT-15 colon              No
18  COc1ccc2cc(C(=O)N3CCC([C@@H](C)C(=O)NCc4ccc5c(c4)OCO5)CC3)[nH]c2c1        HCT-15 colon              No
19  COc1ccc(-c2cc(-c3cccnc3)nc3sc4c(N)c(C(C)=O)c(-c5ccccc5)nc4c23)cc1OC        HCT-15 colon              No
20         O=C1Nc2ccc(Cl)cc2/C1=C/c1ccc[nH]1        HCT-15 colon              No
21  N#Cc1ccccc1-c1ccc(CN2C(=O)S/C(=C\c3ccc(Br)cc3)C2=O)cc1        HCT-15 colon              No
22              Cc1sc2nc(NCCN)[nH]c(=O)c2c1C        HCT-15 colon              No
23  O=[N+]([O-])c1ccccc1Sc1ccccc1[N+](=O)[O-]        HCT-15 colon              No
24    Fc1cccc(-c2nc(-c3c[nH]c4ncccc34)cs2)c1        HCT-15 colon              No
25  c1csc(-c2cn3nc(-c4c[nH]c5ccccc45)sc3n2)c1        HCT-15 colon              No
26  N=C(N)c1ccc(-c2ccc(-c3cc(Cl)cc(Cl)c3)s2)s1        HCT-15 colon             Yes
27  CC1SC(c2ccccc2O)N(NC(=O)CCC(=O)c2nc3ncccc3[nH]2)C1=O (centres undefined)        HCT-15 colon              No
28  COc1cc([C@@H](CCO)C[C@H](C)c2ccc3ccccc3c2)cc(OC)c1OC        HCT-15 colon              No
29  Nc1c(C(=O)Nc2cccc3ncccc23)sc2nc3c(cc12)CN(Cc1ccccc1)CC3        HCT-15 colon              No
30  Cc1ccc(-c2csc(NC(=O)CSc3nc(N)cc(N)n3)n2)cc1        HCT-15 colon              No
31       O=[N+]([O-])c1ccccc1Nc1ccc2ccccc2c1        HCT-15 colon              No
32  COc1cc2c(c(OC)c1OC)CCC(c1cccc(C(=O)Nc3ccc(Br)cc3)c1)O2 (centres undefined)        HCT-15 colon              No
33  NS(=O)(=O)c1ccc(C(=O)NN2C(=O)c3ccccc3C2=O)cc1        HCT-15 colon              No
34  COc1ccc2c(c1)C(C)Cc1c(ncnc1-n1cnc3cc(C)ccc31)N2C (centres undefined)        HCT-15 colon              No
35  COc1ccc(C2[C@@H](c3ccccc3)C(=O)N2c2cc(OC)c(OC)c(OC)c2)cc1F (some centres undefined)        HCT-15 colon             Yes
36  CCn1cc(C(=O)O)c(=O)c2cc(F)c(N3CCN(CC(=O)Nc4ccccc4)C(C)C3)c(F)c21 (centres undefined)        HCT-15 colon              No
37  Cc1ccc(NC(=O)c2sc3nc(C)c(C(O)c4ccccc4)cc3c2N)cc1 (centres undefined)        HCT-15 colon             Yes
38  C=C1SC(=Nc2ccccc2Cl)N(C(=O)c2sc3ccccc3c2Cl)C1(C)C        HCT-15 colon              No
39  COc1cc(-c2nccc3[nH]c(-c4cccc5[nH]ccc45)nc23)cc(OC)c1OC        HCT-15 colon              No
